Test system: guinea pig Dopamine Transporter (DAT), gene 100714898
assay: NVS_TR_gDAT: NovaScreen (NVS) Transporter Assay for guinea pig Dopamine Transporter (DAT) (AID 2283369);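 also: active compounds lower bound radioligand signal relative to DMSO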
Results filed as inconclusive are left out. Activity calls are given as the source filed them. The calls were made as follows: active = hit-call score of the fitted dose curve at least 0.9, where 1 is the maximum; inconclusive = response in the unintended direction; inactive = score below 0.9.
reported.property: AC50

Check out these entries, answers already filled in.
- Cc1cc(F)ccc1-c1cc(N2CC[C@@H](O)[C@H]2CO)ncc1N(C)C(=O)C(C)(C)c1cc(C(F)(F)F)cc(C(F)(F)F)c1: 8.3 µM (active)
- COc1cccc([C@H](O)C2CCN(CCc3ccc(F)cc3)CC2)c1OC: 19.9 µM (active)
- CN(C)C(=O)C1(N2CCCCC2)CCN(CC[C@@]2(c3ccc(Cl)c(Cl)c3)CN(C(=O)c3ccccc3)CCO2)CC1: 6.54 µM (active)
- CN(C)c1ccc(C(=C2C=CC(=[N+](C)C)C=C2)c2ccc(N(C)C)cc2)cc1: 7.68 µM (active)

// switching to the query compound
According to the records, this compound c1ccc(C[n+]2cccc3ccccc32)cc1 displays AC50 of 10.1 µM (active)

---

assay: ATG_VDRE_CIS: Attagene CIS-FACTORIAL HepG2 Assay for human Vitamin D Receptor Element (VDRE) (AID 2282968)
experimental.parameters: HepG2 VDRE cis-reporter transcription, actives raise or lower the signal
Calls of active or inactive are those of the source. How the source made its calls: active means hit-call score of the fitted dose curve at least 0.9, where 1 is the maximum; inactive means score below 0.9.
API: response.call in active, inactive

- COc1ccc2cc(S(=O)(=O)N[C@H](CC(=O)N[C@H](Cc3ccc(CN4[C@H](C)CCC[C@@H]4C)cc3)C(=O)N(C)C(C)C)c3ccc4c(c3)OCO4)ccc2c1: inactive
- CCCCCCCCOc1ccc(C(=O)c2ccccc2)c(O)c1: inactive
- Cc1ncc(CO)c(CO)c1O: inactive
- Cc1occc1C(=O)Nc1ccc(C(=O)N2CCC(F)(F)/C(=C\C(=O)N3CCC(N4CCCCC4)CC3)c3ccccc32)cc1: active
- CC[C@H](NC(=O)c1cc(F)ccc1NS(=O)(=O)c1cccc2cccnc12)c1ccccc1: active

Assay result, entry Cc1cc2c(cc1C(F)(F)F)N(C(=O)Nc1ccc(Oc3cccnc3C)nc1)CC2 — outcome?
inactive

Please indicate how the test categorized OC12N=C(c3ccccc3)SC1Cc1cc(Cl)ccc12 (centres undefined) .
inactive

Please indicate how the test categorized CCN(Cc1cccc(S(=O)(=O)O)c1)c1ccc(C(=C2C=CC(=[N+](CC)Cc3cccc(S(=O)(=O)O)c3)C=C2)c2ccccc2S(=O)(=O)[O-])cc1 .
inactive

Per the assay record, what outcome was assigned to Cc1cccc2ccccc12 ?
inactive

---

Read-out: Interleukin-8 (IL8), CXCL8 (gene 3576)
assay: BSK_hDFCGF_IL8: BioMAP Diversity Plus: hDFCGF Assay for Interleukin-8 (IL8) Biomarker Activity (AID 2283058)
experimental.parameters: primary human foreskin fibroblasts; actives raise or lower the signal
Protocol: BSK_hDFCGF is a cell-based, multiplexed-readout assay that uses foreskin fibroblast, a human skin primary cell, with measurements taken at 24 hours after chemical dosing in a 96-well plate.BSK_hDFCGF_IL8 is an assay component measured in the BSK_hDFCGF assay. It measures IL-8 antibody related to regulation of gene expression using ELISA technology.Data from the assay component BSK_hDFCGF_IL8 was analyzed into 1 assay endpoint. […]
Active and inactive are the calls of the source. How the source made its calls: active means hit-call score of the fitted dose curve at least 0.9, where 1 is the maximum; inactive means score below 0.9.
Parameter call: string, one of true (1) for active, false (0) for inactive

A selection of reference data follows.
* C[C@]12CC[C@@H]3c4ccc(O)cc4CC[C@H]3[C@@H]1CC[C@H]2O | false (0)
* NCc1cccc(C2CCN(C(=O)c3ccc(C#Cc4ccccc4F)o3)CC2)c1 | true (1)
* O=c1[nH]sc2ccccc12 | true (1)

API: the following record is the query input.
Could you please tell me the result logged for CO[C@H]1/C=C/O[C@@]2(C)Oc3c(C)c(O)c4c(O)c(c(/C=N/N5CCN(C)CC5)c(O)c4c3C2=O)NC(=O)/C(C)=C\C=C\[C@H](C)[C@H](O)[C@@H](C)[C@@H](O)[C@@H](C)[C@H](OC(C)=O)[C@@H]1C in this assay?
false (0)
